# Tested on: PC3 (p53−) (Prostate Adenocarcinoma)
# Test method notes: Cell viability analysis, prostate cancer PC3
# Type: cell-based, human
# Experimental conditions: Homo sapiens, 72 h, PC-3; repeated experiment; read-out: The results of antibiotic drug inhibiting cancer cell lines (cell viability analysis), PC-3
Counter-ions that a name gives are not always drawn.
Label satisfied when viability at 10 µM is strictly below 90%; otherwise label not satisfied.

Here are 3 molecules together with their reported answers.
molecule="CCc1cc2c(cc1CC)CC(NC[C@H](O)c1ccc(O)c3[nH]c(=O)ccc13)C2 [Indacaterol Maleate]" classification="not satisfied"
molecule="CC(C)/N=c1\\cc2n(-c3ccc(Cl)cc3)c3ccccc3nc-2cc1Nc1ccc(Cl)cc1 [Clofazimine]" classification="not satisfied"
molecule="NC(=O)N/N=C/c1ccc([N+](=O)[O-])o1 [Nitrofurazone (Nitrofural), Nitrofurazone]" classification="not satisfied"

Would you kindly look at the next entry?
Input: Lab note: viability at 10 µM threshold 90%. Does this molecule come in strictly under it? CC[C@H](C)C(=O)O[C@H]1CCC=C2C=C[C@H](C)[C@H](CC[C@@H]3C[C@@H](O)CC(=O)O3)[C@H]21 [Mevastatin]
Output: satisfied
